System: A498 renal
protocol details: NCI-60 one-dose screen, 48 h (100 = growth as untreated, 0 = no growth, -100 = all killed)
condition notes: 10 µM unless noted
About 83,000 compounds went through this panel and 20% of them were active in at least one assay; those are over-represented in the sample as a whole.
quantity name: growth (%)
Give bare numbers, in %.

See these solved cases before continuing.
COc1ccc(/C=N/Nc2nc(Nc3ccccc3)nc(Nc3ccc(S(N)(=O)=O)cc3)n2)cc1    61.7
COC(=O)[C@@]1(C)CC[C@]2(C)CC[C@]3(C)C(=CC(=O)[C@@H]4[C@@]5(C)Cc6c(n(CC#CCN7CCN(C)CC7)c7ccccc67)C(C)(C)[C@@H]5CC[C@]43C)[C@@H]2C1    112
NC(N)=NS(=O)(=O)c1ccc(N=NC2C(=O)NN(c3ccccc3)C2=O)cc1 (configuration not stated)    98.2

I need growth for every entry listed below, if you could help.
1. COc1cc(/C=N/Nc2ccnc3cc(Cl)ccc23)cc(OC)c1O
2. O=C(/C=C1\C=CN(CCCCO)c2ccccc21)n1ccc2ccccc21
3. CS(=O)(=O)c1nccc(-c2c(-c3ccc(F)c(OCc4ccc(F)cc4)c3)nc3sccn23)n1
4. CCC(CC)N1C(=O)/C(=c2\sc3n(c2=O)C2C(NN=3)N(CC)C(=O)N2CC)c2ccccc21 (configuration not stated)
5. NC(=O)c1c(NC(=O)c2cccc(OC(F)(F)F)c2)sc2c1CCC(=O)C2
6. Cc1ccc(-c2nnc3sc(C4=Cc5ccccc5OC=C4)nn23)cc1

[99.5, 117, 76.6, -17, 88.3, 61.6]

I need growth for every entry listed below, if you could help.
1. COc1ccc(-c2oc3cc(O)cc(O)c3c(=O)c2OC)cc1O
2. COc1ccc2c(C3=C(c4cn(C)c5ccccc45)C(=O)NC3=O)coc2c1

[-6.41, 34.9]

###

Test system: PC-3 prostate
protocol details: NCI-60 one-dose screen, 48 h
condition notes: 10 µM unless noted
This is part of a sample that, as a whole, favours compounds with a hit. Of some 83,000 tested, about 20% had one in any assay. Active and inactive are the calls of the source. Rule for the calls: active = growth percent below 10; inactive = the rest.
Hi there, use one of these labels in your reply, thanks! active, inactive

COc1ccc(/C=C/C(=O)c2nnn(-c3ccc(C(=O)O)cc3)c2C)cc1OC    inactive
C#C[C@]1(O)CC[C@H]2[C@@H]3CC=C4c5sc(Nc6cccc(Cl)n6)nc5CC[C@]4(C)[C@H]3CC[C@@]21C    active
COc1ccc(Oc2ccc(C3CC(c4cc(OC)c(OC)c(OC)c4)=NN3C(C)=O)cc2)cc1 (stereo not given)    inactive
COc1ccc2oc3c4[nH]c5ccccc5c4c4c(c3c2c1)C(=O)N(O)C4=O    inactive
COc1ccc2c(c1)c(-c1nnc(N)nc1-c1cn(C)c3ccccc13)cn2C    inactive

Could you please tell me the result logged for CN1CCN(c2nc(-c3cnc4ccccc4n3)cc3ccccc23)CC1 in this assay?
inactive

Could you please tell me the result logged for Cc1cc(-c2ccc3nc(N)sc3c2)nc2ccc3[nH]ncc3c12 in this assay?
inactive

Could you please tell me the result logged for Oc1ccc(-c2nnc(SCc3ccc(O)c4ncccc34)n2-c2ccccc2)cc1 in this assay?
inactive

Could you please tell me the result logged for NC(=O)N1N=C(c2cc3ccccc3oc2=O)CC1c1cn(-c2ccccc2)nc1-c1ccc(Cl)cc1 (stereo not given) in this assay?
inactive

Could you please tell me the result logged for O=C(O)CNS(=O)(=O)c1ccc(Oc2ccc(S(=O)(=O)NCC(=O)O)cc2)cc1 in this assay?
inactive
